System: ACHN
Assay: Cytotoxicity against human ACHN cells assessed as growth inhibition after 72 hrs by SRB assay
Assay type: functional
Note to self: use TRUE only for GI50 readings below 2000 nM; a reading exactly at 2000 nM still gets FALSE.

Ask: Is it true that GI50 reported for Cc1ccc(-c2c3c(nc4cnc5ccccc5c24)-c2ccccc2OC3)cc1 is less than 2000 nM?
Reply: FALSE

---

So I've got a bunch of compounds here, and I need their GI50 values.
Tested on: ACHN
Test: Cytotoxicity against human ACHN cells assessed as growth inhibition after 72 hrs by SRB assay
Format: functional
Conditions: Homo sapiens, ACHN, 72 h

For this compound ( Cc1c2c(nc3cnc4ccccc4c13)-c1cc(C(C)(C)C)cc(C(C)(C)C)c1OC2 ), measured GI50 is > 10 µM

For this compound ( Cc1c2c(nc3cnc4ccccc4c13)-c1cc(Cl)ccc1OC2 ), measured GI50 is > 10 µM

For this compound ( Cc1c2c(nc3cnc4ccccc4c13)-c1c(ccc3ccccc13)OC2 ), measured GI50 is > 10 µM

For this compound ( CC(C)(C)c1cc2c(c(C(C)(C)C)c1)OCc1cc3c(cnc4ccccc43)nc1-2 ), measured GI50 is > 10 µM

For this compound ( c1ccc2c(c1)OCc1cc3c(cnc4ccccc43)nc1-2 ), measured GI50 is > 10 µM

For this compound ( Cc1ccc(-c2c3c(nc4cnc5ccccc5c24)-c2ccccc2OC3)cc1 ), measured GI50 is 2.4 µM

For this compound ( Cc1c2c(nc3cnc4ccccc4c13)-c1cc(Br)ccc1OC2 ), measured GI50 is > 10 µM

For this compound ( Cc1ccc2c(c1)-c1nc3cnc4ccccc4c3cc1CO2 ), measured GI50 is > 10 µM

For this compound ( Cc1c2c(nc3cnc4ccccc4c13)-c1cc(F)ccc1OC2 ), measured GI50 is > 10 µM

For this compound ( COc1cccc2c1C(=O)c1c(O)c3c(c(O)c1C2=O)C[C@@](O)(C(=O)CO)C[C@@H]3O[C@H]1C[C@H](N)[C@H](O)[C@H](C)O1 ), measured GI50 is 0.08 µM

For this compound ( COc1cccc2c1OCc1c-2nc2cnc3ccccc3c2c1C ), measured GI50 is 2.19 µM

For this compound ( Cc1c2c(nc3cnc4ccccc4c13)-c1cc(Cl)cc(Cl)c1OC2 ), measured GI50 is > 10 µM

For this compound ( Cc1ccc2c(c1)-c1nc3cnc4ccccc4c3c(C)c1CO2 ), measured GI50 is > 10 µM

For this compound ( Brc1ccc2c(c1)-c1nc3cnc4ccccc4c3cc1CO2 ), measured GI50 is > 10 µM

For this compound ( COc1ccc(Br)c2c1OCc1c-2nc2cnc3ccccc3c2c1C ), measured GI50 is > 10 µM

For this compound ( c1ccc2c3c(ccc2c1)OCc1cc2c(cnc4ccccc42)nc1-3 ), measured GI50 is > 10 µM

For this compound ( Cc1ccc(-c2c3c(nc4cnc5ccccc5c24)-c2cc(Cl)ccc2OC3)cc1 ), measured GI50 is > 10 µM

---

So I've got a bunch of compounds here, and I need their GI50 values.
Test system: PC-3
Experiment: Cytotoxicity against human PC3 cells assessed as growth inhibition after 72 hrs by SRB assay
Type: functional
Give a bare numeral; the unit nM is implied.

Entry Clc1ccc2c(c1)-c1nc3cnc4ccccc4c3cc1CO2 , tested on PC-3, has a reported GI50 of 1670

Entry COc1cccc2c1OCc1c-2nc2cnc3ccccc3c2c1C , tested on PC-3, has a reported GI50 of 2060
